- assay.overview: Cytotoxicity against human fibroblast cells assessed as viable cells at 50 uM by trypan blue staining based assay
- Assay type: cell-based
- test.parameters: read-out: Activity
// reported viability at 50 µM for each item listed
Respond numerically; units are % and should not be typed.

Solved cases (3 shown):
Q: So what's the measured viability at 50 µM for this one? CN/N=C(\C)C(CN1CCCCC1)C(C1=C(O)c2ccccc2OC1)c1ccccc1 (stereo unspecified)
A: 75

Q: So what's the measured viability at 50 µM for this one? CC1CN(CCOC(=O)C(c2ccccc2)C2C=CCCC2)CC1C (stereo unspecified)
A: 100

Q: So what's the measured viability at 50 µM for this one? `CCCC(=O)N(C)C1=Nc2ccc(Cl)cc2C(c2ccccc2)=[N+]([O-])C1`
A: 68

***
Q: So what's the measured viability at 50 µM for this one? `O=C1OCCN1N1C(=O)CC2(CCN(Cc3ccccc3)CC2)C1=O`
A: 100

Q: So what's the measured viability at 50 µM for this one? COc1cc(C2CNCc3cc(O)c(OC)cc32)ccc1O (stereo unspecified)
A: 100

Q: So what's the measured viability at 50 µM for this one? COc1cc(C2CNCc3cc(OC)c(O)cc32)ccc1O (stereo unspecified)
A: 90

* * *

// reported viability at 10 µM for each item listed
- Test system: MCF7
- assay.overview: Cytotoxicity against human MCF7 cells assessed as viable cells at 10 uM by trypan blue staining based assay
- Type: functional
- test.parameters: read-out: Activity
Respond numerically; units are % and should not be typed.

Q: So what's the measured viability at 10 µM for this one? `COc1cc(-n2c(CCc3nc(-c4ccc(Cl)cc4)no3)n[nH]c2=S)c(OC)cc1Cl`
A: 86

Q: So what's the measured viability at 10 µM for this one? CN1CCc2ccccc2C1Cc1cc(OCc2ccccc2)ccc1N (stereo not drawn)
A: 74

Q: So what's the measured viability at 10 µM for this one? Cc1ccc2c(c1)C(NC(Cc1ccccc1)C(=O)O)C(Cl)C(=O)O2 (stereo not drawn)
A: 75

***
Q: So what's the measured viability at 10 µM for this one? `C=CCN1CC[C@]23c4c5ccc(O)c4O[C@H]2C(=O)CC[C@@]3(O)[C@H]1C5`
A: 74

Q: So what's the measured viability at 10 µM for this one? CC1CN(CCOC(=O)C(c2ccccc2)C2C=CCCC2)CC1C (stereo not drawn)
A: 89

* * *

- assay.overview: Cytotoxicity against human fibroblast cells assessed as viable cells at 10 uM by trypan blue staining based assay
- Assay type: cell-based
- test.parameters: read-out: Activity
// reported viability at 10 µM for each item listed
Respond numerically; units are % and should not be typed.

Solved cases (4 shown):
Q: So what's the measured viability at 10 µM for this one? CCC1=C(CC2NCCc3ccccc32)CC2c3cc(OC)c(OC)cc3CCN2C1 (centres undefined)
A: 46

Q: So what's the measured viability at 10 µM for this one? `O=C1NCN(c2ccccc2)C12CCN(CCCS(=O)(=O)c1ccccc1)CC2`
A: 100

Q: So what's the measured viability at 10 µM for this one? `CN1CN(c2ccccc2)C2(CCN(CCc3cc4ccccc4o3)CC2)C1=O`
A: 92

Q: So what's the measured viability at 10 µM for this one? COc1cc2c(cc1OC)C1C(CO)c3ccc4c(c3CN1CC2)OCO4 (centres undefined)
A: 100

***
Q: So what's the measured viability at 10 µM for this one? COc1cc(C2CNCc3cc(O)c(OC)cc32)ccc1O (centres undefined)
A: 100

Q: So what's the measured viability at 10 µM for this one? Cc1ccc2c(c1)C(NC(Cc1ccccc1)C(=O)O)C(Cl)C(=O)O2 (centres undefined)
A: 94

Q: So what's the measured viability at 10 µM for this one? `O=C1OCCN1N1C(=O)CC2(CCN(Cc3ccccc3)CC2)C1=O`
A: 100

Q: So what's the measured viability at 10 µM for this one? COc1cc2c(cc1OC)C(c1ccc(O)c(O)c1)CNC2 (centres undefined)
A: 100

Q: So what's the measured viability at 10 µM for this one? `Fc1ccc(N/C2=N/CC/N=C(/Nc3ccc(F)cc3)SS2)cc1`
A: 100

Q: So what's the measured viability at 10 µM for this one? C[N+]1(CCOC(=O)C(c2ccccc2)C2C=CCC2)CCCC12CCCCC2 (centres undefined)
A: 100

* * *

// reported viability at 50 µM for each item listed
- assay.overview: Cytotoxicity against human fibroblast cells assessed as viable cells at 50 uM by trypan blue staining based assay
- Type: cell-based
- test.parameters: read-out: Activity
Respond numerically; units are % and should not be typed.

Solved cases (5 shown):
Q: So what's the measured viability at 50 µM for this one? `Fc1ccc(N/C2=N/CC/N=C(/Nc3ccc(F)cc3)SS2)cc1`
A: 57

Q: So what's the measured viability at 50 µM for this one? `CCN(Cc1ccccc1)C(=O)C1CCN(Cc2c[nH]c3ccccc23)CC1`
A: 21

Q: So what's the measured viability at 50 µM for this one? COc1cc2c(cc1OC)C1C(CO)c3ccc4c(c3CN1CC2)OCO4 (stereo unspecified)
A: 75

Q: So what's the measured viability at 50 µM for this one? `CN1CN(c2ccccc2)C2(CCN(CCc3cc4ccccc4o3)CC2)C1=O`
A: 21

Q: So what's the measured viability at 50 µM for this one? CN(C)C1C(c2ccccc2)S(=O)(=O)C1C1CS(=O)(=O)C1c1ccccc1 (stereo unspecified)
A: 19

***
Q: So what's the measured viability at 50 µM for this one? `N=c1[nH]c(=O)n(CCCCOc2ccccc2)cc1-c1ccc(Cl)c(Cl)c1`
A: 56

Q: So what's the measured viability at 50 µM for this one? CC1(CN2CCCC2)CCC(NC(=O)C(c2ccccc2)c2ccccc2)C(C)(C)O1 (stereo unspecified)
A: 54

Q: So what's the measured viability at 50 µM for this one? CC1CN(CC2COc3ccccc3O2)C(C)CN1CC1COc2ccccc2O1 (stereo unspecified)
A: 77

Q: So what's the measured viability at 50 µM for this one? `Cc1ccc(N2CCN(CCCOC(=O)Nc3cccc4ccccc34)CC2)cc1`
A: 89

Q: So what's the measured viability at 50 µM for this one? CN1CCc2ccccc2C1Cc1cc(OCc2ccccc2)ccc1N (stereo unspecified)
A: 16

Q: So what's the measured viability at 50 µM for this one? CCC(C)N1CN(c2ccccc2)C2(CCN(CC3COc4ccccc4O3)CC2)C1=O (stereo unspecified)
A: 70

Q: So what's the measured viability at 50 µM for this one? Cc1ccc2c(c1)C(NC(Cc1ccccc1)C(=O)O)C(Cl)C(=O)O2 (stereo unspecified)
A: 100

Q: So what's the measured viability at 50 µM for this one? CCC1=C(CC2NCCc3ccccc32)CC2c3cc(OC)c(OC)cc3CCN2C1 (stereo unspecified)
A: 16

Q: So what's the measured viability at 50 µM for this one? COc1ccc(C2NC(C(=O)O)Cc3c2[nH]c2ccccc32)cc1OC (stereo unspecified)
A: 100

* * *

- assay.overview: Inhibition of P-gp in human MCF7/D70 cells assessed as decrease in doxorubicin IC50 at 10 uM after 72 hrs by MTT assay (Rvb doxorubicin alone IC50 = 0.906 +/- 0.02 uM)
- Type: cell-based
- test.parameters: MCF7/D70, 72 h
readout.label: pIC50
The meaning of pIC50 here: minus log10 of the concentration in molar units.

Solved cases (4 shown):
Q: So what's the measured pIC50 for this one? `O=C1CN(CCN2CC(=O)N(Cc3ccccc3)C(=O)C2)CC(=O)N1Cc1ccccc1`
A: 6.07

Q: So what's the measured pIC50 for this one? CC1CN(CC2COc3ccccc3O2)C(C)CN1CC1COc2ccccc2O1 (stereo not given)
A: 5.84

Q: So what's the measured pIC50 for this one? `O=C1NCN(c2ccccc2)C12CCN(CCCS(=O)(=O)c1ccccc1)CC2`
A: 5.94

Q: So what's the measured pIC50 for this one? COc1cc(C2CNCc3cc(OC)c(O)cc32)ccc1O (stereo not given)
A: 6.08

Attention now shifts to the item below.
Q: So what's the measured pIC50 for this one? `C=CCN1CC[C@]23c4c5ccc(O)c4O[C@H]2C(=O)CC[C@@]3(O)[C@H]1C5`
A: 6.07

* * *

- System: MCF7
- assay.overview: Cytotoxicity against human MCF7 cells assessed as viable cells at 10 uM by trypan blue staining based assay
- Type: functional
- test.parameters: read-out: Activity
Label key: Fulfilled means viability at 10 µM under 90%; Not fulfilled means viability at 10 µM of 90% or more.

Q: Please state whether viability at 10 µM is below 90% for COc1cc(C2CNCc3cc(OC)c(O)cc32)ccc1O (stereo not drawn)
A: Fulfilled

Q: Please state whether viability at 10 µM is below 90% for CCCNCCC(O)c1cc(C(F)(F)F)nc2c(C(F)(F)F)cccc12 (stereo not drawn)
A: Fulfilled

***
Q: Please state whether viability at 10 µM is below 90% for `O=C1CN(CCN2CC(=O)N(Cc3ccccc3)C(=O)C2)CC(=O)N1Cc1ccccc1`
A: Fulfilled

Q: Please state whether viability at 10 µM is below 90% for CC1(CN2CCCC2)CCC(NC(=O)C(c2ccccc2)c2ccccc2)C(C)(C)O1 (stereo not drawn)
A: Not fulfilled

Q: Please state whether viability at 10 µM is below 90% for `ClCCNCc1cccc(Nc2ccnc3cc(Cl)ccc23)c1`
A: Fulfilled

All values here come from ChEMBL document CHEMBL3769369.
